Listed compounds paired with reported AC50
# study_target: Neuronal acetylcholine receptor subunit alpha-4 (Homo sapiens, UniProt P43681); also: assay procedure not described here
# Sequence (P43681 whole entry): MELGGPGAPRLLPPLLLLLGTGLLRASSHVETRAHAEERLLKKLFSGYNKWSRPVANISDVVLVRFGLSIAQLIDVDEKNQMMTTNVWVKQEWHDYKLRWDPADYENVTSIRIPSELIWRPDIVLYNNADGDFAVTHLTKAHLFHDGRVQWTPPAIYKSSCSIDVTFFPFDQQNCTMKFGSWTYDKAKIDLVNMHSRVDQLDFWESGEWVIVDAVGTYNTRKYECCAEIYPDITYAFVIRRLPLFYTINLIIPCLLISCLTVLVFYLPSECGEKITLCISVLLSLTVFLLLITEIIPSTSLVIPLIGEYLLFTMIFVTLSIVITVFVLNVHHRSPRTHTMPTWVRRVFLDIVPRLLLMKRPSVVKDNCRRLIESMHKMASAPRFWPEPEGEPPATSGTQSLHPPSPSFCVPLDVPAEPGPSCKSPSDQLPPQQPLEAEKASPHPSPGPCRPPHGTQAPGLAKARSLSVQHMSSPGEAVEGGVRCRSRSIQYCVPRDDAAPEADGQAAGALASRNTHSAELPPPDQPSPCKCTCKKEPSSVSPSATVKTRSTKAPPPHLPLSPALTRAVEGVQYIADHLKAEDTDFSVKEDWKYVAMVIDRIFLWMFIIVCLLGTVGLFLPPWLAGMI
assay_metric: AC50

• Clc1ccc(CCC(Cn2ccnc2)Sc2c(Cl)cccc2Cl)cc1 (centres undefined) = > 30 µM
• CC=CC1=C(C(=O)O)N2C(=O)[C@@H](NC(=O)[C@H](N)c3ccc(O)cc3)[C@H]2SC1 = > 30 µM
• Cc1nnc(SCC2=C(C(=O)O)N3C(=O)[C@@H](NC(=O)Cn4cnnn4)[C@H]3SC2)s1 = > 300 µM
• CCCc1cc(=O)[nH]c(=S)[nH]1 = > 10 µM
• Fc1ccc([C@@H]2CCNC[C@H]2COc2ccc3c(c2)OCO3)cc1 = > 10 µM
• CCC1(CCC(C)C)C(=O)NC(=O)NC1=O = > 10 µM
• C[N+](C)(C)CCOP(=O)([O-])OC[C@H](O)CO = > 30 µM
• CCOC(=O)c1c(CSc2ccccc2)n(C)c2cc(Br)c(O)c(CN(C)C)c12 = > 30 µM
• CCCN1CC(NS(=O)(=O)N(CC)CC)CC2Cc3c(O)cccc3CC21 (centres undefined) [QUINAGOLIDE] = > 30 µM

---

AC50 values recorded for Sodium-dependent dopamine transporter (Homo sapiens)
assay_metric: AC50 (µM)

• Clc1ccc(CCC(Cn2ccnc2)Sc2c(Cl)cccc2Cl)cc1 (centres undefined) [BUTOCONAZOLE] = 20
• COC(=O)[C@H]1[C@H]2C[C@@H]3c4[nH]c5cc(OC)ccc5c4CCN3C[C@H]2C[C@@H](OC(=O)c2cc(OC)c(OC)c(OC)c2)[C@@H]1OC [RESERPINE] = 13
• COc1ccc2cc(CCC(C)=O)ccc2c1 [NABUMETONE] = 7.8
• CCc1nc(N)nc(N)c1-c1ccc(Cl)cc1 [PYRIMETHAMINE] = 2.2

---

# study_target: Voltage-gated inwardly rectifying potassium channel KCNH2 (Homo sapiens, UniProt Q12809); also: assay procedure not described here
# Sequence (Q12809 whole entry): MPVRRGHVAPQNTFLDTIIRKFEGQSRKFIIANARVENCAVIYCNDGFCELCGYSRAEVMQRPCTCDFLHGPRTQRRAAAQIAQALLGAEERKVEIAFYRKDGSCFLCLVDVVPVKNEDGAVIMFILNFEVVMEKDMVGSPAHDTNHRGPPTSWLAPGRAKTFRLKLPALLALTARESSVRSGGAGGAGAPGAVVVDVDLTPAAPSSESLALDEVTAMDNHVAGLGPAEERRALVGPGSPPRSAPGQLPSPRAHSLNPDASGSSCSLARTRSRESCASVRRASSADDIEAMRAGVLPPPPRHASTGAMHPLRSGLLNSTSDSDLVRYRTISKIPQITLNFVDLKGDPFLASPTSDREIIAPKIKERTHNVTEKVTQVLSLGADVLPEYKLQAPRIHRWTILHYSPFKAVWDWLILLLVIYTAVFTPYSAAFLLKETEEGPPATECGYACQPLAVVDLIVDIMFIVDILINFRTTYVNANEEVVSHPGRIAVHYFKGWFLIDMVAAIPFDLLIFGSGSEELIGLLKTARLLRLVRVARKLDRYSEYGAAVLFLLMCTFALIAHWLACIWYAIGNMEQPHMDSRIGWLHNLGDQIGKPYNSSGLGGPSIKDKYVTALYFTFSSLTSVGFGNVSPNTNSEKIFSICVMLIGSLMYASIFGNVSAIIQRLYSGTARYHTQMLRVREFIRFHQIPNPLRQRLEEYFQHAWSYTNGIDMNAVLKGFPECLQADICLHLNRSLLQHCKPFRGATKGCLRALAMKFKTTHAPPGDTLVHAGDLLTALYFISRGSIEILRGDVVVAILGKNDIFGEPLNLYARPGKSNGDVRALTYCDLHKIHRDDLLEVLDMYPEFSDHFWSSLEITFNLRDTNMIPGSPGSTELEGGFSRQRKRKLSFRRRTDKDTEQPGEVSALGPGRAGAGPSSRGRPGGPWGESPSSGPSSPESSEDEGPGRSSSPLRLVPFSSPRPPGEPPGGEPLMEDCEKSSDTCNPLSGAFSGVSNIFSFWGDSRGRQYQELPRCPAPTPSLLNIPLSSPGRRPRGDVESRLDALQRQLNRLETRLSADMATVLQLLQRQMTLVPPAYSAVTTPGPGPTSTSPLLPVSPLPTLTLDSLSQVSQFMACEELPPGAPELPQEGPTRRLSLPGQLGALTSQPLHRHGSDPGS
# Format: functional
assay_metric: AC50

- c1ccc2c(SC3=NCCN3)c[nH]c2c1 [TINAZOLINE]: > 30 µM
- CC(C)N(CCCCOCC(=O)O)c1cnc(-c2ccccc2)c(-c2ccccc2)n1: > 30 µM
- CCCCC1C(=O)N(c2ccccc2)N(c2ccc(O)cc2)C1=O (centres undefined) [OXYPHENBUTAZONE ANHYDROUS]: > 30 µM
- NNC(=O)c1ccncc1 [ISONIAZID]: > 30 µM
- CC(Cc1cccc(C(F)(F)F)c1)NCCOC(=O)c1ccccc1 (centres undefined) [BENFLUOREX]: 5.6 µM
- CCC[C@@H]1C[C@@H](C(=O)N[C@@H]([C@H]2O[C@H](SC)[C@H](O)[C@@H](O)[C@H]2O)[C@@H](C)O)N(C)C1 [LINCOMYCIN]: > 30 µM
- C[N+]1(C)CCCC(OC(=O)C(O)(c2ccccc2)c2ccccc2)C1 (centres undefined) [MEPENZOLATE]: 13 µM
- CO[C@H]1C[C@H](O[C@H]2CC[C@@]3(C)[C@H](CC[C@@H]4[C@@H]3CC[C@]3(C)[C@@H](C5=CC(=O)OC5)[C@@H](OC(C)=O)C[C@]43O)C2)O[C@@H](C)[C@@H]1O [OLEANDRIN]: > 30 µM
- O=C(O)[C@@H]1C[C@@H](O)CN1: > 30 µM

---

# study_target: Muscarinic acetylcholine receptor M2 (Homo sapiens, UniProt P08172); also: assay procedure not described here
# Sequence (P08172 whole entry): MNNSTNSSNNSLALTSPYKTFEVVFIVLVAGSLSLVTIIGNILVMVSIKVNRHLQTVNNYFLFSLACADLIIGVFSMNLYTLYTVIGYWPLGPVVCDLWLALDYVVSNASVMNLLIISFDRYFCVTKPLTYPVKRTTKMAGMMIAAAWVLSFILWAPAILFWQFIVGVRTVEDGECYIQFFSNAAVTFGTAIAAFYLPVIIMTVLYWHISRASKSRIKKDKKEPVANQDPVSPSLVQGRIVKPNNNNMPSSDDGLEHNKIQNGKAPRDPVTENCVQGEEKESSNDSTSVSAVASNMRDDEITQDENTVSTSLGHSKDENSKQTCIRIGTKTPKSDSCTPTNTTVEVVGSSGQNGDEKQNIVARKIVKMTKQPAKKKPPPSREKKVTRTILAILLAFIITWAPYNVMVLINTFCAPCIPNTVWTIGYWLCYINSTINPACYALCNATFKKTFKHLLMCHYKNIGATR
assay_metric: AC50

- CC(=O)NCCCCCC(=O)O: > 30 µM
- CC(=O)NO [ACETOHYDROXAMIC ACID]: > 30 µM
- O=C(O)CN(CCN(CC(=O)O)CC(=O)O)CCN(CC(=O)O)CC(=O)O: 3.91 µM
- c1ccc2c(SC3=NCCN3)c[nH]c2c1: > 30 µM
- Cc1ccc(C(=O)c2ccc(CC(=O)O)n2C)cc1: > 30 µM
- CC(OCCN1CCCCCC1)(c1ccccc1)c1ccc(Cl)cc1 (configuration not stated): 0.393 µM
- C[C@H](N[C@@H](CCc1ccccc1)C(=O)O)C(=O)N1Cc2ccccc2C[C@H]1C(=O)O: > 30 µM
- Cc1ccccc1C(=O)Nc1ccc(C(=O)N2CCCC(O)c3cc(Cl)ccc32)c(C)c1 (configuration not stated): > 30 µM
- COc1ccc(OC)c(C(O)C(C)N)c1 (configuration not stated): > 30 µM
- COc1ccccc1OC1(C)OC(=O)c2ccccc2O1 (configuration not stated): > 30 µM
- Cc1cn([C@H]2O[C@@H](CO)[C@H](O)[C@H]2F)c(=O)[nH]c1=O: > 30 µM
- C[N+](C)(CCCCCC[N+](C)(C)C1c2ccccc2-c2ccccc21)C1c2ccccc2-c2ccccc21: 0.514 µM

---

AC50 values recorded for 5-hydroxytryptamine receptor 5A (Homo sapiens)
assay_metric: AC50

* Fc1ccc([C@@H]2CCNC[C@H]2COc2ccc3c(c2)OCO3)cc1 | 5.63 µM
* CN(C)CCCN1c2ccccc2CCc2ccccc21 | 2.26 µM
* Cc1ccnc2c1NC(=O)c1cccnc1N2C1CC1 | > 10 µM
* CCCCOc1ccc(C(=O)CCN2CCCCC2)cc1 | > 10 µM
* CCOc1nc2cccc(C(=O)O)c2n1Cc1ccc(-c2ccccc2-c2nnn[nH]2)cc1 | > 10 µM
* O=C(O)Cc1ccccc1Nc1c(Cl)cccc1Cl | > 10 µM
* O=C(/C=C/c1cccc(S(=O)(=O)Nc2ccccc2)c1)NO | > 10 µM

---

# study_target: UniProtKB P08908
# Sequence (P08908 whole entry): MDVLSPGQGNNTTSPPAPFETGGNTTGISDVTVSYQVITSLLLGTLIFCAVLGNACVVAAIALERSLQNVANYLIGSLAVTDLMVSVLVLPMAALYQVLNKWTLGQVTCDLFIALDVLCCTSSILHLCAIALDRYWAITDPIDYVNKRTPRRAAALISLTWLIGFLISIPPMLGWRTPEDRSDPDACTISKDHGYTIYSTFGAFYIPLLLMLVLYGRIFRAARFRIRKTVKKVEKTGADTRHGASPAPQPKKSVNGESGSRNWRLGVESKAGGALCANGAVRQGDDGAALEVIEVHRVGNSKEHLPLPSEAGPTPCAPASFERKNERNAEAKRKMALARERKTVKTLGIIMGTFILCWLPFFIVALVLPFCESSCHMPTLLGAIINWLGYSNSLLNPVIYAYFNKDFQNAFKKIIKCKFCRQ
# Format: functional, cell-based
assay_metric: AC50

• COc1cc(C(=O)OCc2cccc(COC(=O)c3cc(OC)c(OC)c(OC)c3)n2)cc(OC)c1OC = > 30 µM
• Clc1ccc(CCC(Cn2ccnc2)Sc2c(Cl)cccc2Cl)cc1 (configuration not stated) = > 30 µM
• CO/N=C(\C(=O)N[C@@H]1C(=O)N2C(C(=O)O)=C(CSc3nc(=O)c(=O)[nH]n3C)CS[C@H]12)c1csc(N)n1 = > 30 µM
• CC[C@H](C)C(=O)O[C@H]1C[C@@H](C)C=C2C=C[C@H](C)[C@H](CC[C@@H]3C[C@@H](O)CC(=O)O3)[C@H]21 = > 10 µM
• COc1ccc(C2C(=O)c3ccccc3C2=O)cc1 = > 10 µM
• CC(C(=O)O)c1ccc2c(c1)CC(=O)c1ccccc1S2 (configuration not stated) = > 30 µM
• O=C(O)Cc1ccccc1Nc1c(Cl)cccc1Cl = > 10 µM
• NNC(=O)c1ccncc1 = > 30 µM
• CN(CCOc1ccc(CC2SC(=O)NC2=O)cc1)c1ccccn1 (configuration not stated) = > 30 µM
• CC(Cc1cccc(C(F)(F)F)c1)NCCOC(=O)c1ccccc1 (configuration not stated) = 4.3 µM
• CC(=O)Nc1ccc(CC(=O)O)cc1 = > 30 µM
• CC=CC1=C(C(=O)O)N2C(=O)[C@@H](NC(=O)[C@H](N)c3ccc(O)cc3)[C@H]2SC1 = > 30 µM
• CCOC(=O)c1ccc(C#Cc2ccc3c(c2)C(C)(C)CCS3)nc1 = > 30 µM
• C[N+]1(C)CCC(=C(c2ccccc2)c2ccccc2)CC1 = > 10 µM
• CC(C)[C@@H](C)/C=C/[C@@H](C)[C@H]1CC[C@H]2/C(=C/C=C3\C[C@@H](O)CC[C@@H]3C)CCC[C@]12C [DIHYDROTACHYSTEROL] = > 10 µM
• CCc1nc(N)nc(N)c1-c1ccc(Cl)cc1 = 18 µM
• C[C@@H]1C[C@H]2[C@@H]3C[C@H](F)C4=CC(=O)C=C[C@]4(C)[C@@]3(F)[C@@H](O)C[C@]2(C)[C@@]1(OC(=O)c1ccco1)C(=O)SCF [FLUTICASONE FUROATE] = > 10 µM

---

# study_target: Prostaglandin G/H synthase 1 (Homo sapiens, UniProt P23219); also: assay procedure not described here
# Sequence (P23219 whole entry): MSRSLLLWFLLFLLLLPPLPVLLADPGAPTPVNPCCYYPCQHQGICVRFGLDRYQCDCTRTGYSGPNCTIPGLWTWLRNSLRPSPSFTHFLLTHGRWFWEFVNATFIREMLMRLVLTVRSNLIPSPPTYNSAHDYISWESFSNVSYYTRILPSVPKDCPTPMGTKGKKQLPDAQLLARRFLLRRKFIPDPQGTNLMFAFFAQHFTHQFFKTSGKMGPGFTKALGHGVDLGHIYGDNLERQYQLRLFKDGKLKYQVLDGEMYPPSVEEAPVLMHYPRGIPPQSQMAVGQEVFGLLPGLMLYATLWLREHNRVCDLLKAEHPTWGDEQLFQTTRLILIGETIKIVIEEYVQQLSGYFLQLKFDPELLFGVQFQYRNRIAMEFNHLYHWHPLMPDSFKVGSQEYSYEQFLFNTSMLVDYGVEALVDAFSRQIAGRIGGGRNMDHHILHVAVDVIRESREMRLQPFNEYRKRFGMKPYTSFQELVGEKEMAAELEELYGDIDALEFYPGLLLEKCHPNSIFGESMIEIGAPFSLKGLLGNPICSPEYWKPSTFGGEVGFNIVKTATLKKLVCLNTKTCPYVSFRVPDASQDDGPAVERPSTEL
# Assay type: functional
Listed compounds paired with reported AC50
assay_metric: AC50

• COc1ccccc1OC1(C)OC(=O)c2ccccc2O1 (centres undefined) = > 30 µM
• Cc1ccccc1C(=O)Nc1ccc(C(=O)N2CCCC(O)c3cc(Cl)ccc32)c(C)c1 (centres undefined) = > 30 µM
• CC(C)C(=O)Oc1ccc(CO)cc1[C@H](CCN(C(C)C)C(C)C)c1ccccc1 = > 30 µM
• Cc1cn([C@H]2O[C@@H](CO)[C@H](O)[C@H]2F)c(=O)[nH]c1=O = > 30 µM
• CC(CN1c2ccccc2Sc2ccccc21)N(C)C (centres undefined) = > 30 µM
• N#Cc1ccc(Oc2ccc3c(c2)COB3O)cc1 = > 30 µM
• COC(=O)[C@H]1[C@H]2C[C@@H]3c4[nH]c5cc(OC)ccc5c4CCN3C[C@H]2C[C@@H](OC(=O)c2cc(OC)c(OC)c(OC)c2)[C@@H]1OC = > 10 µM
• CC[N+](C)(CC)CCOC(=O)C(O)(c1ccccc1)C1CCCCC1 (centres undefined) = > 30 µM
• Cc1ccc(C(=O)c2ccc(CC(=O)O)n2C)cc1 = 0.081 µM
